Biological target: Pim2 kinase (h) (Homo sapiens (Human), UniProt Q9P1W9)
Sequence (Q9P1W9 whole entry): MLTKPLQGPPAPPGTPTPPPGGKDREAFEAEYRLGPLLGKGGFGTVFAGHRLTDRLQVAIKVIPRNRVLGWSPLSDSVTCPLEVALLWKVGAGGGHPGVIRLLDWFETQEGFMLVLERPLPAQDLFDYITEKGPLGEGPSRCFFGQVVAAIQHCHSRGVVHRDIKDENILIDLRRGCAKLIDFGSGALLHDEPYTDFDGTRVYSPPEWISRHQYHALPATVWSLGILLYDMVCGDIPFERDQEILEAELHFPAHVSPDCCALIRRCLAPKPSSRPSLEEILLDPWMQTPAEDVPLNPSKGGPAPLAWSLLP
Test: Kinase selectivity panel: Pim2 kinase (h)
Assay type: biochemical
Details: 10 μM in duplicate, read-out: % inhibition of control values
The entries below are paired with their reported inhibition at 10 µM.
Numbers only; they are read as %.

Examples with answers:
> print(dat)
                                   molecule           observable  unit.abbreviation  reported.result
1  COc1ccc2[nH]nc(C(=O)NCC3CCN(CCC(=O)O)CC3)c2c1 [Compound 3]  inhibition at 10 µM                  %                0
2  COCCN1CCC(CNC(=O)c2n[nH]c3ccc(OC)cc23)CC1 [Compound 2]  inhibition at 10 µM                  %                4
3  COc1ccc2[nH]nc(C(=O)NCC3CCN(CC(=O)O)CC3)c2c1 [Compound 1]  inhibition at 10 µM                  %                3

Consider the additional molecule presented here.
Ask | Request the reported inhibition at 10 µM associated with COCCN1CCC(CNC(=O)c2n[nH]c3ccc(-c4cccc(F)c4F)cc23)CC1 [Compound 8]
Reply | 0
